- tested target: T1, human IL-23 (IL-23-His-Biotin) (human, UniProt Q9NPF7 20-189; P29460 23-328, biotin label, site not stated)
- T1 construct: Akesobio lot 20161209; His-tagged and biotinylated
- T1 sequence (looked up) 1: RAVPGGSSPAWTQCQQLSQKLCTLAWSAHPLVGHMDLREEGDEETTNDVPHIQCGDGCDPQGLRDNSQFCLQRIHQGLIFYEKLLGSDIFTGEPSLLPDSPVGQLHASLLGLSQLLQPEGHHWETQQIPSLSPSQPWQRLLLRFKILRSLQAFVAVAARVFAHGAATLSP
- T1 sequence (looked up) 2: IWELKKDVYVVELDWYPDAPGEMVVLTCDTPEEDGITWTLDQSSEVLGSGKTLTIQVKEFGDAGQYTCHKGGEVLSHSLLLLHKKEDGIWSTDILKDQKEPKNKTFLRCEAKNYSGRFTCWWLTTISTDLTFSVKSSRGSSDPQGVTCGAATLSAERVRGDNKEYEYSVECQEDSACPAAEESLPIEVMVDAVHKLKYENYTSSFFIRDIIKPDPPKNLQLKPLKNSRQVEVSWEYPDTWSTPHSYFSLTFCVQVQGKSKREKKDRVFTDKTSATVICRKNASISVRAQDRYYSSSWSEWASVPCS
- assay overview: FACS competition, IL-23-His-Biotin 2 µg/mL on 293T-IL-12Rβ1&IL-23R cells; antibody 0.04 µg/mL
Catalogue of MFI values

[
  {
    "binder": "H5L14 (antibody, human IgG1, kappa, V domains shown, human IgG1 / kappa constant regions; also called humanized antibody H5L14) VH: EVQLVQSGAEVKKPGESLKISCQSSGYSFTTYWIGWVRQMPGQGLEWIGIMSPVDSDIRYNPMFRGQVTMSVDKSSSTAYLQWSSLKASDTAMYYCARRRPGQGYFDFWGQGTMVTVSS VL: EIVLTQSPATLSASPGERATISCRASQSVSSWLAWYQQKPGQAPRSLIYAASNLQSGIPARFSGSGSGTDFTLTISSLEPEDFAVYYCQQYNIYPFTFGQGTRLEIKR",
    "MFI, MFI": 216
  },
  {
    "binder": "H5L9 (antibody, human IgG1, kappa, V domains shown, human IgG1 (P01857) / kappa (P01834) constant regions; also called humanized antibody H5L9) VH: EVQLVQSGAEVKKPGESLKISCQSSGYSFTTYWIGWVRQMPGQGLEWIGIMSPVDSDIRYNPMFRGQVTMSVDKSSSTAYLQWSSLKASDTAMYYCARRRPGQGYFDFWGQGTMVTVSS VL: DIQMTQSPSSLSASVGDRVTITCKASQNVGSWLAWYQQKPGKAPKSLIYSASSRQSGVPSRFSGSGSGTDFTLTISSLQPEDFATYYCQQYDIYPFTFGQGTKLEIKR",
    "MFI, MFI": 221
  },
  {
    "binder": "H5L11 (antibody, human IgG1, kappa, V domains shown, human IgG1 / kappa constant regions; also called humanized antibody H5L11) VH: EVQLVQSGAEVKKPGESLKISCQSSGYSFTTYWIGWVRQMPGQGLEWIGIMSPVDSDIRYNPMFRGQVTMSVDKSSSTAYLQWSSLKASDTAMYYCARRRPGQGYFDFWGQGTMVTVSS VL: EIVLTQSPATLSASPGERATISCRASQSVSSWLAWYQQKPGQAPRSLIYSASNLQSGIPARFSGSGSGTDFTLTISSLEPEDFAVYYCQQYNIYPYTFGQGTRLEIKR",
    "MFI, MFI": 224
  },
  {
    "binder": "H5L10 (antibody, human IgG1, kappa, V domains shown, human IgG1 / kappa constant regions; also called humanized antibody H5L10) VH: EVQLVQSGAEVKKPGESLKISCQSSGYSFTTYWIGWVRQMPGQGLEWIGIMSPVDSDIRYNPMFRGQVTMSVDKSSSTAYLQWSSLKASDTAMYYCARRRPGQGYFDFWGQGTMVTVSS VL: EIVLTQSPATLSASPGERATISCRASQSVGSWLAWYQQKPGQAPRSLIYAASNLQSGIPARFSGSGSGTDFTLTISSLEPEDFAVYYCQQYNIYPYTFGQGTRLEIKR",
    "MFI, MFI": 230
  },
  {
    "binder": "ustekinumab (antibody, V domains shown) VH: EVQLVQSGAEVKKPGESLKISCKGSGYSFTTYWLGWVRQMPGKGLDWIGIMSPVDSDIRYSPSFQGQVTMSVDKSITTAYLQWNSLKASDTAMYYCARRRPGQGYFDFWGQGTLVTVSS VL: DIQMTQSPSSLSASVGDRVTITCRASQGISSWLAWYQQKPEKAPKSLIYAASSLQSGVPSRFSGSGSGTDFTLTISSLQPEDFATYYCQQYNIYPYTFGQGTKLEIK",
    "MFI, MFI": 216
  },
  {
    "binder": "H5L12 (antibody, human IgG1, kappa, V domains shown, human IgG1 / kappa constant regions; also called humanized antibody H5L12) VH: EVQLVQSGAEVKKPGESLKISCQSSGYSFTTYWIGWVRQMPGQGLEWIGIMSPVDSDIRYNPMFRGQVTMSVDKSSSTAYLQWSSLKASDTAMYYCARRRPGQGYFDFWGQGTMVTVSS VL: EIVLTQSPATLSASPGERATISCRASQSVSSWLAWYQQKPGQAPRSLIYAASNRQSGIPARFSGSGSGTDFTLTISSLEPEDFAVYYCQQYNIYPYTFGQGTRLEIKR",
    "MFI, MFI": 234
  }
]
